# credit: patent US10280166B2

system: primary human fibroblasts derived from IPF patients (LL29 cells); assay: Inhibition of fibrosis (αSMA) in TGF-β1 treated primary human fibroblasts from IPF patients; type: cell-based; conditions: Fibroblast, 96 h, TGF-β1 20 ng/mL, 4 days, % αSMA positive cells
This section presents molecules with their documented EC50 values.
Give just the numeric value; nM need not be written.

> print(dat)
                            molecule.smiles  result.unit  reported.result
1  O=C(Nc1cncc(-c2ccc3[nH]nc(-c4nc5c(-c6ccccc6F)ccnc5[nH]4)c3c2)c1)C1CCCC1           nM            0.379
2  CN1CCN(c2ccnc3[nH]c(-c4n[nH]c5ccc(-c6cncc(NC(=O)C7CCCC7)c6)cc45)nc23)CC1           nM             1.07
3  CN(C)c1cncc(-c2ccc3[nH]nc(-c4nc5c(N6CCCCC6)ccnc5[nH]4)c3c2)c1           nM            0.009
4  O=C(Nc1cncc(-c2ccc3[nH]nc(-c4nc5cccnc5[nH]4)c3c2)c1)C1CCCCC1           nM            0.401
5  Cc1cn(-c2ccnc3[nH]c(-c4n[nH]c5ccc(-c6cncc(NC(=O)CC(C)C)c6)cc45)nc23)cn1           nM            0.142
6  CC(C)CC(=O)Nc1cncc(-c2ccc3[nH]nc(-c4nc5c(-c6cccc(F)c6)ccnc5[nH]4)c3c2)c1           nM            0.041
7  O=C(CC1CCCCC1)Nc1cncc(-c2ccc3[nH]nc(-c4nc5c(-c6cccc(F)c6)ccnc5[nH]4)c3c2)c1           nM             9.99
8  CCC(=O)Nc1cncc(-c2ccc3[nH]nc(-c4nc5c(-c6cccs6)ccnc5[nH]4)c3c2)c1           nM            0.027

Just so you know, measured EC50 for CC(C)Nc1cncc(-c2ccc3[nH]nc(-c4nc5c(-c6cc(F)cc(NCCN(C)C)c6)ccnc5[nH]4)c3c2)c1 came out at 0.019

Just so you know, measured EC50 for Cc1cn(-c2ccnc3[nH]c(-c4n[nH]c5ccc(-c6cncc(NC(=O)C(C)(C)C)c6)cc45)nc23)cn1 came out at 0.009

Just so you know, measured EC50 for Fc1cccc(-c2ccnc3[nH]c(-c4n[nH]c5ccc(-c6cnccn6)cc45)nc23)c1 came out at 0.167

Just so you know, measured EC50 for CS(=O)(=O)NCc1cc(F)cc(-c2ccnc3[nH]c(-c4n[nH]c5ccc(-c6cncc(CNCc7ccccc7)c6)cc45)nc23)c1 came out at 0.009

Just so you know, measured EC50 for O=C(Nc1cncc(-c2ccc3[nH]nc(-c4nc5c(-c6cccs6)ccnc5[nH]4)c3c2)c1)C1CC1 came out at 0.155

Just so you know, measured EC50 for Nc1cncc(-c2ccc3[nH]nc(-c4nc5c(-c6ccccc6F)ccnc5[nH]4)c3c2)c1 came out at 0.017

====

tested on: primary human fibroblasts derived from IPF patients (LL29 cells); test: Inhibition of fibrosis (αSMA) in TGF-β1 treated primary human fibroblasts from IPF patients; assay type: cell-based; settings: Fibroblast, 96 h, TGF-β1 20 ng/mL, 4 days, % αSMA positive cells
Experimental Readout: pEC50
Please keep in mind that pEC50 is minus log10 of the molar concentration; only the number is needed.

A selection of reference data follows.
> print(dat)
                            molecule.smiles  experimental.readout  reported.result
1  Fc1cccc(-c2ccnc3[nH]c(-c4n[nH]c5ccc(-c6ccccn6)cc45)nc23)c1                 pEC50            10.74
2  O=C(Nc1cncc(-c2ccc3[nH]nc(-c4nc5c(-c6ccccc6F)ccnc5[nH]4)c3c2)c1)C1CC1                 pEC50             8.00
3  Fc1cccc(-c2ccnc3[nH]c(-c4n[nH]c5ccc(C6=CCNCC6)cc45)nc23)c1                 pEC50             9.50
4  O=C(Nc1cncc(-c2ccc3[nH]nc(-c4nc5c(-c6cccc(F)c6)ccnc5[nH]4)c3c2)c1)C1CCCC1                 pEC50            10.57

Just so you know, measured pEC50 for Fc1cccc(-c2ccnc3[nH]c(-c4n[nH]c5ccc(-c6ccncc6)cc45)nc23)c1 came out at 8.00

Just so you know, measured pEC50 for CN(C)Cc1cncc(-c2ccc3[nH]nc(-c4nc5c(-c6cccc(F)c6)ccnc5[nH]4)c3c2)c1 came out at 8.94

====

This section presents compounds with their documented log10 EC50 values.
tested on: primary human fibroblasts derived from IPF patients (LL29 cells); test: Inhibition of fibrosis (αSMA) in TGF-β1 treated primary human fibroblasts from IPF patients; assay type: cell-based; conditions: Fibroblast, 96 h, TGF-β1 20 ng/mL, 4 days, % αSMA positive cells
Please keep in mind that the values are log10 of EC50 expressed in nM.

A selection of reference data follows.
> print(dat)
                                   compound  reported.result
1  Cc1ccncc1-c1ccc2[nH]nc(-c3nc4cccnc4[nH]3)c2c1 [Compound 239]            -0.77
2  Fc1cccc(-c2ccnc3[nH]c(-c4n[nH]c5ccc(-c6cncc(CN7CCC(F)(F)C7)c6)cc45)nc23)c1 [Compound 25]            -1.00

Just so you know, measured log10 EC50 for CN(C)CC(=O)Nc1cncc(-c2ccc3[nH]nc(-c4nc5c(-c6cccc(F)c6)ccnc5[nH]4)c3c2)c1 [Compound 2373] came out at -0.63

Just so you know, measured log10 EC50 for O=C(Nc1cncc(-c2ccc3[nH]nc(-c4nc5c(N6CCCCC6)ccnc5[nH]4)c3c2)c1)C1CC1 [Compound 175] came out at 1.00

Just so you know, measured log10 EC50 for Nc1cncc(-c2ccc3[nH]nc(-c4nc5c(-c6cccnc6)ccnc5[nH]4)c3c2)c1 [Compound 81] came out at -2.05

Just so you know, measured log10 EC50 for Cc1ccncc1-c1ccc2[nH]nc(-c3nc4c(-c5ccsc5)ccnc4[nH]3)c2c1 [Compound 265] came out at -0.88

====

tested on: primary human fibroblasts derived from IPF patients (LL29 cells); assay: Inhibition of fibrosis (αSMA) in TGF-β1 treated primary human fibroblasts from IPF patients; assay type: cell-based; settings: Fibroblast, 96 h, TGF-β1 20 ng/mL, 4 days, % αSMA positive cells
Experimental Readout: pEC50
Please keep in mind that pEC50 is minus log10 of the molar concentration; only the number is needed.

A selection of reference data follows.
> print(dat)
                                   compound  experimental.readout  reported.result
1  O=C(Nc1cncc(-c2ccc3[nH]nc(-c4nc5c(-c6ccsc6)ccnc5[nH]4)c3c2)c1)C1CC1 [Compound 279]                 pEC50             9.51
2  CN(C)c1cncc(-c2ccc3[nH]nc(-c4nc5c(-c6ccccc6F)ccnc5[nH]4)c3c2)c1 [Compound 59]                 pEC50            11.05
3  O=C(Nc1cncc(-c2ccc3[nH]nc(-c4nc5c(-c6cccs6)ccnc5[nH]4)c3c2)c1)C1CCCC1 [Compound 333]                 pEC50            11.05

Kindly consider the entry below.
Just so you know, measured pEC50 for Cc1ccncc1-c1ccc2[nH]nc(-c3nc4c(-c5ccncc5)ccnc4[nH]3)c2c1 [Compound 109] came out at 9.11

====

test system: primary human fibroblasts derived from IPF patients (LL29 cells); experiment: Inhibition of fibrosis (αSMA) in TGF-β1 treated primary human fibroblasts from IPF patients; assay type: cell-based; details: Fibroblast, 96 h, TGF-β1 20 ng/mL, 4 days, % αSMA positive cells
Experimental Readout: pEC50
Please keep in mind that pEC50 is minus log10 of the molar concentration; only the number is needed.

A selection of reference data follows.
> print(dat)
                                   compound  experimental.readout  reported.result
1  O=C(Nc1cncc(-c2ccc3[nH]nc(-c4nc5c(-c6ccsc6)ccnc5[nH]4)c3c2)c1)C1CCCC1 [Compound 281]                 pEC50             9.44
2  CN1CCN(c2ccnc3[nH]c(-c4n[nH]c5ccc(-c6cncc(CN7CCCCC7)c6)cc45)nc23)CC1 [Compound 223]                 pEC50            11.05
3  CCNCc1cncc(-c2ccc3[nH]nc(-c4nc5c(-c6ccoc6)ccnc5[nH]4)c3c2)c1 [Compound 292]                 pEC50            11.05

Just so you know, measured pEC50 for Cc1ccc(-c2ccnc3[nH]c(-c4n[nH]c5ccc(-c6cncc(N)c6)cc45)nc23)s1 [Compound 367] came out at 9.50
